- System: MALME-3M melanoma
- assay-method-text: NCI-60 one-dose screen, 48 h
- experimental-parameters: 10 µM unless noted
- Protocol: Cells are grown in 96 well plates and exposed to the test compound for 48 hours. Compounds are tested at a single concentration, which is 10^-5 M for most compounds. The reported endpoint is percent growth (GI% or GIPRCNT), where numbers from 0 - 100% represent growth inhibition, and numbers from -100% - 0 represent cell death. For example, a value of 40 represents 60% growth inhibition. A value of 0 means no net growth occurred over the course of the experiment. […]
Compounds without any hit were thinned out: in the full panel of roughly 83,000, 20% have a hit. Active and inactive are the calls of the source. How the source made its calls: active means growth percent below 10; inactive means the rest.
Log the outcome using a class from active, inactive

Problem: What call does the record list for COc1ccc(-n2c(=O)n(-c3ccc(-c4nc5ccc(F)cc5s4)cc3)c(=O)c3cccnc32)cc1 ?
Result: inactive

Problem: What call does the record list for CC(C)(C#N)c1cc(C(=O)Nc2cc(Nc3ncccc3-c3ncnc4nc[nH]c34)ccc2F)cc(C(F)(F)F)c1 ?
Result: active

Problem: What call does the record list for O=C(/C=C\c1ccc(O)c(O)c1)c1ccccc1O ?
Result: inactive

Problem: What call does the record list for COc1ccc(-c2cn(Cc3ccc4c(Br)cc(Br)c(O)c4n3)nn2)cc1 ?
Result: inactive

Problem: What call does the record list for CN(C)CCOc1nc2c3cc([N+](=O)[O-])ccc3nn2c2ccccc12 ?
Result: inactive

Problem: What call does the record list for O=C(Nc1ccccc1C(F)(F)F)C1=NCCCCN1 ?
Result: inactive

Problem: What call does the record list for C=CCn1c(SCC(=O)Nc2ccc(C(=O)/C=C/c3ccc(Cl)cc3)cc2)nnc1-c1ccccc1 ?
Result: inactive

Problem: What call does the record list for O=C(Cn1cc(CSc2nc3ccccc3o2)nn1)Nc1ccc([N+](=O)[O-])cc1 ?
Result: inactive

Problem: What call does the record list for Cn1ccnc1C(=O)/C=C/c1ccc(CC(=O)Nc2cc(F)c(F)c(F)c2)cc1 ?
Result: inactive

Problem: What call does the record list for Cn1cc(-c2ccc3occ(-c4cccc(-c5ccncc5)c4)c3n2)cn1 ?
Result: inactive

* * *

Consider the following compounds; for each one, report its growth.
- Test system: DU-145 prostate
- assay-method-text: NCI-60 one-dose screen, 48 h (100 = growth as untreated, 0 = no growth, -100 = all killed)
- experimental-parameters: 10 µM unless noted
The panel holds about 83,000 compounds, 20% with a hit somewhere; the sample as a whole holds those more often.
Field: numeric (%). Do not append units.

Problem: Consider the compound C=CCn1c(SCC(=O)Nc2ccc(C(=O)/C=C/c3ccc(Cl)cc3)cc2)nnc1-c1ccc(Cl)c(Cl)c1 . State its measured growth.
Result: 92.2

Problem: Consider the compound CN(CCNc1ccc(C(=N)N)cc1)c1ccc(C(=N)N)cc1 . State its measured growth.
Result: 66.6

Problem: Consider the compound COc1ccc(-c2cn(Cc3ccc4c(Br)cc(Br)c(O)c4n3)nn2)cc1 . State its measured growth.
Result: 89.7

Problem: Consider the compound CN1C(=O)N(C)C2C1NN=c1s/c(=C\c3ccccc3F)c(=O)n12 (configuration not stated) . State its measured growth.
Result: 15.9

Problem: Consider the compound C=CCn1c(SCC(=O)Nc2ccc(C(=O)/C=C/c3cc(OC)c(OC)c(OC)c3)cc2)nnc1-c1cc(-c2ccc(S(N)(=O)=O)cc2)nc2ccccc12 . State its measured growth.
Result: 105

Problem: Consider the compound NCCNc1ccc([N+](=O)[O-])cc1 . State its measured growth.
Result: 126

Problem: Consider the compound COC(=O)[C@H]1Cc2c([nH]c3ccccc23)[C@H](c2ccc3c(c2)OCO3)N1 . State its measured growth.
Result: 101

Problem: Consider the compound c1ccc(-c2nc(N3CCNCC3)c3oc(-c4ccccc4)nc3n2)cc1 . State its measured growth.
Result: -55.4

Problem: Consider the compound COC(=O)c1nc(-c2ccc(C)cc2)oc1N1CCOCC1 . State its measured growth.
Result: 98.1

Problem: Consider the compound CN(C)CC1C(=O)O[C@H]2[C@H]1CC/C(COC(=O)NCc1ccc(Cn3c(=O)sn(CCCI)c3=O)cc1)=C\CC[C@@]1(C)O[C@@H]21 (some centres not stated) . State its measured growth.
Result: -69.8

Problem: Consider the compound O=c1c(/C=C/c2c(O)ccc3ccccc23)nnc2sc(-c3cccc([N+](=O)[O-])c3)nn12 . State its measured growth.
Result: 44.1

Problem: Consider the compound CNC1=C([N+](=O)[O-])C(c2ccc(OC)cc2)C(C#N)=C(c2ccc[nH]2)O1 (configuration not stated) . State its measured growth.
Result: 107

Problem: Consider the compound COc1ccc(-c2nc(SCCC(C)C)nc(N/N=C(/C)c3ccc(N)cc3)c2C#N)cc1 . State its measured growth.
Result: 97.1

Problem: Consider the compound C=CC(=O)Nc1ccc2ncnc(Nc3cccc(NS(=O)(=O)CCC)c3Cl)c2c1 . State its measured growth.
Result: 37.8

Problem: Consider the compound Cc1c(CC(=O)Nc2ccccc2)nnn1-c1ccccc1 . State its measured growth.
Result: 115

Problem: Consider the compound C#CC#CC#CC#CC#CC#CC#CC#CC[C@@H]1OC[C@H](COC(=O)O[C@@H](C(=O)O[C@H]2C[C@@]3(O)[C@@H](OC(=O)c4ccccc4)[C@@H]4[C@]5(OC(C)=O)CO[C@@H]5C[C@H](O)[C@@]4(C)C(=O)[C@H](OC(C)=O)C(=C2C)C3(C)C)[C@@H](NC(=O)c2ccccc2)c2ccccc2)O1 . State its measured growth.
Result: 24.4

Problem: Consider the compound CC1(C)CC[C@]2(CO)CC[C@]3(C)[C@H](CC[C@@H]4[C@@]5(C)CC[C@H](O)C(C)(C)[C@@H]5CC[C@]43C)[C@H]2[C@H]1O . State its measured growth.
Result: 77.7

* * *

- System: ACHN renal
- assay-method-text: NCI-60 one-dose screen, 48 h (100 = growth as untreated, 0 = no growth, -100 = all killed)
- experimental-parameters: 10 µM unless noted
The panel holds about 83,000 compounds, 20% with a hit somewhere; the sample as a whole holds those more often.
Param threshold (50%) applies to growth; output Criterion met when value >= threshold, Criterion not met when value < threshold.

Problem: Hi team, for CCOC(=O)c1cc(C(=O)c2cc(OC)cc(OC)c2)n2ncccc12 , is the recorded growth at or above 50%?
Result: Criterion met

Problem: Hi team, for CCCc1cc(CCC)n2nc(N)nc2n1 , is the recorded growth at or above 50%?
Result: Criterion met

Problem: Hi team, for O=c1cc(-c2nccc3c2[nH]c2ccccc23)c2cc(Cl)ccc2o1 , is the recorded growth at or above 50%?
Result: Criterion not met

Problem: Hi team, for [2H]C([2H])([2H])Oc1ccc(/C=C/C(=O)/C=C(O)/C=C/c2ccc(OC([2H])([2H])[2H])c(OC([2H])([2H])[2H])c2)cc1OC([2H])([2H])[2H] , is the recorded growth at or above 50%?
Result: Criterion not met

Problem: Hi team, for CCN(CC)c1ccc(/C=N/NC(=O)c2ccccc2Nc2ccnc(C(F)(F)F)c2)c(O)c1 , is the recorded growth at or above 50%?
Result: Criterion not met

Problem: Hi team, for O=C(Nc1ncc(Cc2ccccc2)s1)c1cc(-c2ccccc2)nc2ccccc12 , is the recorded growth at or above 50%?
Result: Criterion met

Problem: Hi team, for COc1ccc(/C=C\c2cc(OC)c(OC)c(OC)c2)cc1OCC(=O)Nc1nc2ccccc2s1 , is the recorded growth at or above 50%?
Result: Criterion not met

Problem: Hi team, for c1ccc2c(-c3cnn4cc(-c5ccc(N6CCNCC6)cc5)cnc34)ccnc2c1 , is the recorded growth at or above 50%?
Result: Criterion not met

Problem: Hi team, for COc1ccc(-c2cc(-c3ccc(Nc4nc(Nc5ccc(Cl)cc5)nc(Nc5ccc(Cl)cc5)n4)cc3)no2)cc1 , is the recorded growth at or above 50%?
Result: Criterion met

Problem: Hi team, for CCOC(=O)c1c2c(n3ccc(NC(=O)CCN4CCCC4)cc13)C(=O)c1ncccc1C2=O , is the recorded growth at or above 50%?
Result: Criterion not met

Problem: Hi team, for CCCN1C2CCC1/C(=C\c1ccc(OC)cc1)C(=O)/C2=C/c1ccc(OC)cc1 , is the recorded growth at or above 50%?
Result: Criterion met

Problem: Hi team, for COc1ccc(-c2cn(Cc3ccc4c(Br)cc(Br)c(O)c4n3)nn2)cc1 , is the recorded growth at or above 50%?
Result: Criterion not met

Problem: Hi team, for CCN1CCN(C(=O)[C@]23CC[C@@H](C)[C@H](C)[C@@H]2C2=CC[C@@H]4[C@@]5(C)C/C(=C/c6ccncc6)C(=O)C(C)(C)[C@@H]5CC[C@@]4(C)[C@]2(C)CC3)CC1 , is the recorded growth at or above 50%?
Result: Criterion not met

Problem: Hi team, for Nc1c(C(=O)c2ccc(Cl)cc2)sc(Nc2ccccc2)c1-c1nc2ccccc2s1 , is the recorded growth at or above 50%?
Result: Criterion not met

Problem: Hi team, for O=C1c2ccccc2C(=O)c2cc(Cn3c[n+](Cc4ccc5ccccc5c4)c4ccccc43)ccc21 , is the recorded growth at or above 50%?
Result: Criterion met

Problem: Hi team, for COc1ccccc1-c1nc2ccc3[nH]ncc3c2c2c1CCCC2 , is the recorded growth at or above 50%?
Result: Criterion met

Problem: Hi team, for COc1ccc(-c2ccc(-c3ccc(C(=N)N)o3)o2)cc1 , is the recorded growth at or above 50%?
Result: Criterion not met

Problem: Hi team, for COc1cc(CNC(=O)CCCC/C=C/C(C)C)ccc1OCc1cn(-c2ccc(C(F)(F)F)cc2)nn1 , is the recorded growth at or above 50%?
Result: Criterion met

Problem: Hi team, for CN1CCN(Cc2ccc(NC(=O)c3cncc(C#Cc4c(N)ncc5cc(F)ccc45)c3)cc2C(F)(F)F)CC1 , is the recorded growth at or above 50%?
Result: Criterion not met

Problem: Hi team, for COc1cccc(/C=C/C(=O)/C=C(/C=C/c2cccc(OC)c2OC)OB(F)F)c1OC , is the recorded growth at or above 50%?
Result: Criterion not met

Problem: Hi team, for Oc1ccc(C(c2ccc(O)cc2)c2ccc(Cl)cn2)cc1 , is the recorded growth at or above 50%?
Result: Criterion not met

Problem: Hi team, for Nc1ncc(-c2ccc3ncnc(N4CCc5cc(F)c(Cl)cc54)c3c2)cn1 , is the recorded growth at or above 50%?
Result: Criterion not met

Problem: Hi team, for C=CN(C(=O)N1CCN(c2cc3c(cc2F)c(=O)c(C(=O)O)cn3C2CC2)CC1)c1nc(-c2ccc(C)cc2)cs1 , is the recorded growth at or above 50%?
Result: Criterion not met

Problem: Hi team, for COc1cc2c(c(OC)c1OC)C(=O)CC(c1cccc(C(=O)Nc3ccc(Br)cc3)c1)O2 (stereo not drawn) , is the recorded growth at or above 50%?
Result: Criterion met

Problem: Hi team, for O=C1c2ccccc2-c2c1c1ccncc1c(=O)n2CCCn1ccnc1 , is the recorded growth at or above 50%?
Result: Criterion not met

Problem: Hi team, for Oc1ccc(Cc2ccc(O)c3ncccc23)c2cccnc12 , is the recorded growth at or above 50%?
Result: Criterion not met

Problem: Hi team, for COC(=O)c1ccc(-n2cc(CCCOS(=O)(=O)c3ccc(F)cc3)nn2)cc1 , is the recorded growth at or above 50%?
Result: Criterion met

Problem: Hi team, for Nc1cc(-c2ccc(Cl)cc2)nn1-c1nc(-c2ccc(Br)cc2)cs1 , is the recorded growth at or above 50%?
Result: Criterion met

Problem: Hi team, for Cc1ccc(-c2nnc(SCc3nc(N)nc(Nc4ccccc4F)n3)n2-c2ccccc2)cc1 , is the recorded growth at or above 50%?
Result: Criterion met

Problem: Hi team, for CCN1CCN(c2cc(C(=O)Nc3cccc(Nc4ccc5c(OC)cccc5n4)c3)cc(C(F)(F)F)c2)CC1 , is the recorded growth at or above 50%?
Result: Criterion not met

Problem: Hi team, for Cc1ccc(Nc2cc(N)nc(N)n2)cc1 , is the recorded growth at or above 50%?
Result: Criterion met

Problem: Hi team, for Cc1nc2sc(C(=O)Nc3ccccc3)c(N)c2cc1C(O)c1ccccc1 (stereo not drawn) , is the recorded growth at or above 50%?
Result: Criterion not met

Problem: Hi team, for O=C(Nc1cccc(Cn2c(=O)[nH]c3ccc(Oc4ncccn4)cc3c2=O)c1)c1cccc(Cl)c1 , is the recorded growth at or above 50%?
Result: Criterion met

Problem: Hi team, for Nc1ccc(N)c2c1C(=O)c1cccc([N+](=O)[O-])c1C2=O , is the recorded growth at or above 50%?
Result: Criterion not met

Problem: Hi team, for Cn1cc(-c2csc(-c3cn(CCO)c4ccc(F)cc34)n2)c2cccnc21 , is the recorded growth at or above 50%?
Result: Criterion met

Problem: Hi team, for Cc1nc2ccccc2c(/C=C/c2ccc(Br)cc2)c1C(=O)/C=C/c1ccccc1 , is the recorded growth at or above 50%?
Result: Criterion not met

Problem: Hi team, for Cc1ccc(-c2nc(C#N)c(S(=O)(=O)n3nc(C)cc3N)o2)cc1 , is the recorded growth at or above 50%?
Result: Criterion not met
